Tested on: NCI-H460 lung
Test: NCI tumour cell line growth inhibition, 48 h
Where a SMILES comes first, the peptide text is derived from it. [ ]: non-standard residue; d: D form. The star is where a group is joined. Phe(4-NO2) = N[CH](Cc1ccc([N+](=O)[O-])cc1)C(=O)O; Boc = CC(C)(C)OC(=O)*; OtBu = CC(C)(C)O*
Listed molecules paired with reported TGI

1) O=C(O)CCCc1nc2c(n1-c1ccccc1)C(=O)c1ccccc1C2=O
> 100 µM
2) COC(=O)C(Cc1ccc([N+](=O)[O-])cc1)NC(=O)C(CC(=O)OC(C)(C)C)NC(=O)OC(C)(C)C (centres undefined) (Boc-Asp(OtBu)-[Phe(4-NO2)]-OMe; configuration not given here)
> 100 µM
3) Cn1c(COC(=O)NCCN2CCOCC2)nc2c(N3CCOCC3)nc(-c3ccccc3)nc21
2.77 µM

-- ask Reported TGI for CC(C)=C1CCC(CN2CCCC2)C1=O (centres undefined) : what is it?
-- reply > 100 µM

---

System: TK-10 renal
Test: NCI tumour cell line growth inhibition, 48 h
VALUE_KIND: GI50

1) CCCCCCN(CCCCCC)CC(O)c1cccc2ccc(Cl)cc12 (stereo unspecified)
12.4 µM
2) Cc1cc2c(cc1Cl)SC1=NN(C)C(c3ccccc3O)N1S2(=O)=O (stereo unspecified)
82.1 µM
3) O=C(Nc1ccccc1)Nc1ccccc1CNc1nc(Nc2ccc(OCCN3CCCC3)cc2)ncc1Cl
4.36 µM
4) C#Cc1ccc(-n2c(/C=C/c3cc(OC)c(OC)c(OC)c3)nc3ncccc3c2=O)cc1
17.3 µM
5) COc1cc(C(=O)N/N=C/c2cccc([N+](=O)[O-])c2)cc(OC)c1OC
25.2 µM
6) N#Cc1ccc(N2Cc3cc(Cl)ccc3OC3=C2C(=O)N(Cc2ccccc2)C3=O)cc1
1.45 µM
7) COC1C(CO)OC(n2c3ccccc3c3c4c(c5c6ccccc6[nH]c5c32)C(=O)NC4=O)C(O)C1OC(=O)C(N)CCCCN (stereo unspecified)
1.81 µM
8) O=[N+]([O-])c1cccc(-c2ncc(-c3ccc(Cl)cc3Cl)[nH]2)c1
3.3 µM
9) OCCCCC#Cc1ccccc1C#Cc1cnccn1
47.7 µM
10) Nc1ncnc2c1ncn2Cc1ccc(C23CC4CC(CC(C4)C2)C3)c(O)c1
7.24 µM

-- ask Reported GI50 for `CCNC(=O)Oc1ccc(/C(=C(\C)c2ccc(Cl)cc2)c2ccc(OCCN3CCCCC3)cc2)cc1` : what is it?
-- reply 19.5 µM

---

Test system: MOLT-4 leukemia
Assay: NCI tumour cell line growth inhibition, 48 h
Listed compounds paired with reported TGI
# unit: µM | format: bare number

# example entries with known answers
1) COc1cc(/C=C\c2cccnc2Nc2ccccc2)cc(OC)c1OC
46.2
2) COc1cc(O)c2c(c1)C(O)C(O)CC1OC1C(=O)/C=C/CC(C)OC2=O (centres undefined)
17.2
3) C[C@@H](C[C@@H](O)[C@H](O)C(C)(C)O)[C@H]1CC=C2[C@]3(C)[C@H](O)C[C@H]4C(C)(C)[C@H](O)CC[C@]4(C)[C@H]3CC[C@@]21C
29.6

Now look at this entry.
-- ask Entry CCCCCCN(CCCCCC)CC(O)c1cccc2ccc(Cl)cc12 (centres undefined) , system MOLT-4 leukemia: what TGI was measured?
-- reply 26.1

---

Test system: OVCAR-5 ovarian
Assay: NCI tumour cell line growth inhibition, 48 h
VALUE_KIND: TGI

1. COC(=O)CCc1ccc2c(c1)CC1(C2)Cc2ccc(CCC(=O)OC)cc2C1
> 100 µM
2. CN(C)c1ccc(Sc2ccc3nc(N)nc(N)c3c2)cc1
21 µM
3. CC(C)=C1CCC(CN2CCCC2)C1=O (configuration not stated)
> 100 µM

-- ask Reported TGI for O=C(NO)C(O)C(O)C(O)C(O)CO (configuration not stated) : what is it?
-- reply > 100 µM

-- ask Reported TGI for `CC(=O)Nc1ccc(C(=O)N2N=C(C)/C(=C/c3cccc(O)c3)C2=O)cc1` : what is it?
-- reply > 100 µM

-- ask Reported TGI for `CC(C)n1nc(C#Cc2cccc(NC(=O)c3cccc(C(F)(F)F)c3)c2)c2c(N)ncnc21` : what is it?
-- reply 27.7 µM

-- ask Reported TGI for `C#Cc1ccc(-n2c(/C=C/c3cc(OC)c(OC)c(OC)c3)nc3ncccc3c2=O)cc1` : what is it?
-- reply > 100 µM

-- ask Reported TGI for `O=C1c2cccc3cccc(c23)C(=O)N1CCCN1CCN(CCCN2C(=O)c3cccc4cccc(c34)C2=O)CC1` : what is it?
-- reply > 100 µM

-- ask Reported TGI for `C=CCOn1c(C=C)nc2c(C)cccc21` : what is it?
-- reply 23.3 µM

---

System: LOX IMVI melanoma
Test: NCI tumour cell line growth inhibition, 48 h
VALUE_KIND: TGI

# example entries with known answers
1) CC(C)n1nc(C#Cc2cccc(NC(=O)c3cccc(C(F)(F)F)c3)c2)c2c(N)ncnc21
1.04 µM
2) C#Cc1ccc(-n2c(/C=C/c3cc(OC)c(OC)c(OC)c3)nc3ncccc3c2=O)cc1
64 µM
3) COC(=O)CNC(=O)/C=C/[C@H](O[Si](C)(C)C(C)(C)C)[C@H](/C=C/C(=O)NCC(=O)OC)O[Si](C)(C)C(C)(C)C
> 25 µM
4) COc1cc2c(cc1OC)[C@H]1C(=O)c3cc4c(cc3[C@H]1N(C)C2=O)OCO4
> 40.8 µM

-- ask Reported TGI for `C=C1c2nc3ccccc3n2C=C(c2ccccc2)N1c1ccc(OC)cc1` : what is it?
-- reply > 100 µM

-- ask Reported TGI for `c1ccc(COc2ncccc2C2SCCCS2)cc1` : what is it?
-- reply > 100 µM

-- ask Reported TGI for `COc1ccccc1OC/C(N=Cc1ccncc1)=N/NC(=O)c1ccncc1` : what is it?
-- reply > 100 µM

-- ask Reported TGI for `CCCCCCCCCCCCCCCC(=O)N[C@H]1CCc2cc(OC)c(OC)c(OC)c2-c2ccc(SC)c(=O)cc21` : what is it?
-- reply 11.9 µM

-- ask Reported TGI for `CCNC(=O)Oc1ccc(/C(=C(\C)c2ccc(Cl)cc2)c2ccc(OCCN3CCCCC3)cc2)cc1` : what is it?
-- reply 3.94 µM

---

Listed compounds paired with reported TGI
System: UACC-62 melanoma
Experiment: NCI tumour cell line growth inhibition, 48 h

1. Cc1cccc(N2CCN(S(=O)(=O)c3ccc(Cl)cc3)C2=N)c1C
> 100 µM
2. C=C(CCC(C(=O)O)C1CCC2(C)C3=C(CCC12C)C1(C)CCC(O)C(C)(C)C1CC3)C(C)C (stereo unspecified)
> 100 µM
3. c1ccc(COc2ncccc2C2SCCCS2)cc1
> 100 µM

-- ask Reported TGI for COc1cc(O)c2c(c1)C(O)C(O)CC1OC1C(=O)/C=C/CC(C)OC2=O (stereo unspecified) : what is it?
-- reply 3.2 µM

-- ask Reported TGI for `Cc1csc(Nc2nc(-c3cccc(Cl)c3)nc(C(Cl)(Cl)Cl)n2)n1` : what is it?
-- reply > 33.3 µM

-- ask Reported TGI for `Cc1ns/c(=N\C(=S)N(C)C)n1C` : what is it?
-- reply > 100 µM

---

Tested on: SK-MEL-5 melanoma
Test: NCI tumour cell line growth inhibition, 48 h
Listed molecules paired with reported TGI
# unit: µM | format: bare number

-- ask Entry COCCCN1C(=O)C2c3[nH]c4ccccc4c3C3CCC(C(C)(C)C)CC3C2C1=O (centres undefined) , system SK-MEL-5 melanoma: what TGI was measured?
-- reply 82.4

-- ask Entry CC(C)CC1c2[nH]c3ccccc3c2C[C@H]2C(=O)NC(COC(C)(C)C)C(=O)N12 (some centres undefined) , system SK-MEL-5 melanoma: what TGI was measured?
-- reply 47.4

-- ask Entry `Cn1c(COC(=O)NCCN2CCOCC2)nc2c(N3CCOCC3)nc(-c3ccccc3)nc21` , system SK-MEL-5 melanoma: what TGI was measured?
-- reply 3.05

-- ask Entry `CCN(CC)CCOc1ccc(C2=C(c3ccccc3)CCc3cc(OC)ccc32)cc1` , system SK-MEL-5 melanoma: what TGI was measured?
-- reply 2.29

-- ask Entry CCCCC(=C=C1CCCCC1O)C1CCCN1C(=O)OC(C)(C)C (centres undefined) , system SK-MEL-5 melanoma: what TGI was measured?
-- reply 30.9

-- ask Entry `CCN(CC)c1ccc(C(=C2C=CC(=[N+](CC)CC)C=C2)c2ccccc2)cc1` , system SK-MEL-5 melanoma: what TGI was measured?
-- reply 0.041

-- ask Entry `C#Cc1ccc(-n2c(/C=C/c3cc(OC)c(OC)c(OC)c3)nc3ncccc3c2=O)cc1` , system SK-MEL-5 melanoma: what TGI was measured?
-- reply 4.4

-- ask Entry `CN(C)CCn1c(=O)c2ccc(NCCNCCO)c3c(=O)c4cc(O)ccc4n(c1=O)c23` , system SK-MEL-5 melanoma: what TGI was measured?
-- reply 5.22
